cond: in n-propanol, 303.15 K
quantity-name: solubility (mole fraction)

>>> assay_result("CCO.C[C@H]1c2cccc(O)c2C(O)=C2C(=O)[C@]3(O)C(O)=C(C(N)=O)C(=O)[C@@H](N(C)C)[C@@H]3[C@@H](O)[C@@H]21.C[C@H]1c2cccc(O)c2C(O)=C2C(=O)[C@]3(O)C(O)=C(C(N)=O)C(=O)[C@@H](N(C)C)[C@@H]3[C@@H](O)[C@@H]21.Cl.Cl.O")
0.00174

---

cond: in water, 302.35 K
quantity-name: solubility (mole fraction)

>>> assay_result("CCO.C[C@H]1c2cccc(O)c2C(O)=C2C(=O)[C@]3(O)C(O)=C(C(N)=O)C(=O)[C@@H](N(C)C)[C@@H]3[C@@H](O)[C@@H]21.C[C@H]1c2cccc(O)c2C(O)=C2C(=O)[C@]3(O)C(O)=C(C(N)=O)C(=O)[C@@H](N(C)C)[C@@H]3[C@@H](O)[C@@H]21.Cl.Cl.O")
0.00254

---

cond: in n-propanol, 293.15 K
quantity-name: solubility (mole fraction)

>>> assay_result("CCO.C[C@H]1c2cccc(O)c2C(O)=C2C(=O)[C@]3(O)C(O)=C(C(N)=O)C(=O)[C@@H](N(C)C)[C@@H]3[C@@H](O)[C@@H]21.C[C@H]1c2cccc(O)c2C(O)=C2C(=O)[C@]3(O)C(O)=C(C(N)=O)C(=O)[C@@H](N(C)C)[C@@H]3[C@@H](O)[C@@H]21.Cl.Cl.O")
0.00133

---

cond: in methanol, 307.25 K
quantity-name: solubility (mole fraction)

>>> assay_result("CCO.C[C@H]1c2cccc(O)c2C(O)=C2C(=O)[C@]3(O)C(O)=C(C(N)=O)C(=O)[C@@H](N(C)C)[C@@H]3[C@@H](O)[C@@H]21.C[C@H]1c2cccc(O)c2C(O)=C2C(=O)[C@]3(O)C(O)=C(C(N)=O)C(=O)[C@@H](N(C)C)[C@@H]3[C@@H](O)[C@@H]21.Cl.Cl.O")
0.0292
